Molecular target: Human immunodeficiency virus type 1 protease (Human immunodeficiency virus 1, UniProt Q72874)
pKi: −log10 of the molar value.
metricName: pKi

>>> recordedmeasurement("Cc1cccc(C)c1OCC(=O)N[C@@H](Cc1cccc(Br)c1)[C@H](O)C[C@H](CC(C)C)S(=O)(=O)c1ccc(N(C)C)cc1")
6.27
>>> recordedmeasurement("COc1cc(Br)c(C(=O)N[C@@H](Cc2cccc(Br)c2)[C@H](O)C[C@H](CCc2ccc(Cl)cc2Cl)S(=O)(=O)c2ccc(F)cc2)cc1OC")
5.51

----------
Biological target: Human immunodeficiency virus type 1 protease (Human immunodeficiency virus 1, UniProt Q72874)
Experiment: Inhibitory concentration against HIV-1 protease expressed in Escherichia coli upon incubation in pH 5.5 buffer containing Abz-Thr-Ile-p-nitrophenylalanine-Phe-Gln-Arg-NH2
pIC50: −log10 of the molar value.
The threshold is inclusive: pIC50 of exactly 6 counts as condition met; values below receive condition not met.

>>> classification("CNc1ccc(S(=O)(=O)[C@@H](CC(C)C)C[C@@H](O)[C@H](Cc2cccc(Br)c2)NC(=O)COc2c(C)cccc2C)cc1")
"condition met"
>>> classification("O=C(N[C@H](Cc1cccc(Br)c1)[C@@H](O)C[C@@H](CCc1ccc(Cl)cc1Cl)S(=O)(=O)c1ccc(F)cc1)[C@H]1CCCO1")
"condition not met"
>>> classification("Cc1cccc(C)c1OCC(=O)N[C@H](Cc1cccc(Br)c1)[C@@H](O)C[C@@H](CC(C)C)S(=O)(=O)c1ccc(F)cc1")
"condition not met"
>>> classification("O=C(COc1ccc(Cl)cc1Cl)N[C@@H](Cc1cccc(Br)c1)[C@H](O)C[C@H](CCc1ccc(Cl)cc1Cl)S(=O)(=O)c1ccc(F)cc1")
"condition not met"
>>> classification("CC(C)CCS(=O)(=O)[C@@H](C)C[C@@H](O)[C@H](Cc1cccc(Br)c1)NC(=O)CCS(C)(=O)=O")
"condition not met"
>>> classification("COc1cc(Br)c(C(=O)N[C@@H](Cc2cccc(Br)c2)[C@H](O)C[C@H](CCc2ccc(Cl)cc2Cl)S(=O)(=O)c2ccc(F)cc2)cc1OC")
"condition not met"

----------
Biological target: Human immunodeficiency virus type 1 protease (Human immunodeficiency virus 1)
pKi: −log10 of the molar value.
metricName: pKi

>>> recordedmeasurement("CNc1ccc(S(=O)(=O)[C@@H](CC(C)C)C[C@@H](O)[C@H](Cc2cccc(Br)c2)NC(=O)COc2c(C)cccc2C)cc1")
6.43
>>> recordedmeasurement("O=C(COc1ccc(Cl)cc1Cl)N[C@@H](Cc1cccc(Br)c1)[C@H](O)C[C@H](CCc1ccc(Cl)cc1Cl)S(=O)(=O)c1ccc(F)cc1")
5.15
>>> recordedmeasurement("Cc1cccc(C)c1OCC(=O)N[C@H](Cc1cccc(Br)c1)[C@@H](O)C[C@@H](CC(C)C)S(=O)(=O)c1ccc(F)cc1")
5.85
>>> recordedmeasurement("CC(C)CN(C[C@@H](O)[C@H](Cc1ccccc1)NC(=O)O[C@H]1CCOC1)S(=O)(=O)c1ccc(N)cc1")
10.22
